B1: RTP4 (parent)
chain: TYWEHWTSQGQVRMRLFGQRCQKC

Variants of: B1
Assay: protein stability index of a GFP-peptide fusion (GPS, HEK-293T) (PSI 1-6); higher = more stable;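 further: lentivirally expressed fusions sorted by FACS into six bins by GFP to DsRed ratio, PSI derived from sequencing read proportions per bin multiplied by bin number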
Details: c terminus: a fixed tail appended

{"columns": ["seq_string", "protein stability index"],
 "data": [
  ["TYWEHWTSQGQVCMRLFGQRCQKC [R13C]", 2.78],
  ["TYWEHWTSQGQVRMRWFGQRCQKC [L16W]", 1.62],
  ["TYWEHWTSQGQVRMRLFGIRCQKC [Q19I]", 2.31],
  ["TYWEHWTSQGQVRMRLFGQRCQKA [C24A]", 2.31],
  ["TYWEHWPSQGQVRMRLFGQRCQKC [T7P]", 2.27],
  ["TYWEHWTSQGQVRMRLFGQRAQKC [C21A]", 1.94],
  ["TYWEHWTSQGQVRMRLFGQSCQKC [R20S]", 1.65],
  ["TYWEHKTSQGQVRMRLFGQRCQKC [W6K]", 1.6],
  ["YYWEHWTSQGQVRMRLFGQRCQKC [T1Y]", 2.21],
  ["TYWEHWTSQGQVRMRLEGQRCQKC [F17E]", 2.29],
  ["TYGEHWTSQGQVRMRLFGQRCQKC [W3G]", 1.63],
  ["TYWEHWTSQGQVRMRLFGQQCQKC [R20Q]", 1.24],
  ["TYWEHWTSQGQVRMRLFGQRCQKK [C24K]", 3.24],
  ["TYWEHWTSQGQVRMRLFGERCQKC [Q19E]", 1.62],
  ["TYWEHWTSQGQVRMRLFGQRCPKC [Q22P]", 1.68],
  ["TYWEHWTSQGQVRMRLFGLRCQKC [Q19L]", 1.04],
  ["TYWEHWTSQGQNRMRLFGQRCQKC [V12N]", 1.65],
  ["TYWEHWTSQGQVSMRLFGQRCQKC [R13S]", 1.59],
  ["TYWEHWTSQGQVRMRLFGQHCQKC [R20H]", 1.63],
  ["TYWEHWTSQGQVRMRLIGQRCQKC [F17I]", 1.67],
  ["TYWEHGTSQGQVRMRLFGQRCQKC [W6G]", 1.75],
  ["TYWEHWTSQRQVRMRLFGQRCQKC [G10R]", 1.69],
  ["TYWNHWTSQGQVRMRLFGQRCQKC [E4N]", 1.1],
  ["TYWEHWTSQGQVHMRLFGQRCQKC [R13H]", 2.4],
  ["TYWEHWTSQGQVRMRLFGQRCQAC [K23A]", 2.52],
  ["TYWEHWTSQGQVRMRLFGQRCQKL [C24L]", 2.2],
  ["TYWEHWTSQGPVRMRLFGQRCQKC [Q11P]", 2.14],
  ["TYWEHWTSQGQVRMRLFGDRCQKC [Q19D]", 1.97],
  ["TYWEHWTIQGQVRMRLFGQRCQKC [S8I]", 2.05],
  ["TYWEHWTSQGQVRMRLFGQRHQKC [C21H]", 2.23],
  ["TYWEHWTSQGQVRMRHFGQRCQKC [L16H]", 2.34],
  ["TYWEHWTSQGQVRMRLFGQRNQKC [C21N]", 2.15],
  ["TYWEHWWSQGQVRMRLFGQRCQKC [T7W]", 2.06],
  ["TYWEHWTSQMQVRMRLFGQRCQKC [G10M]", 1.68],
  ["TYWEHWTSQGQVRMRLFAQRCQKC [G18A]", 1.96],
  ["TYWEHWFSQGQVRMRLFGQRCQKC [T7F]", 1.21],
  ["TYWEHWTSQHQVRMRLFGQRCQKC [G10H]", 1.76],
  ["TYNEHWTSQGQVRMRLFGQRCQKC [W3N]", 2.98],
  ["TYWEHWTSQGQVRMRLQGQRCQKC [F17Q]", 2.26],
  ["TYWEHWTSQGQVRMRDFGQRCQKC [L16D]", 2.85],
  ["TYWEHWTSQGQVRMRLFGQRDQKC [C21D]", 2.75],
  ["TYWEHWTSQGQVRMRIFGQRCQKC [L16I]", 1.62],
  ["TYWHHWTSQGQVRMRLFGQRCQKC [E4H]", 1.71],
  ["TYWEHWTSQGQVRMRLFGQRQQKC [C21Q]", 2.12],
  ["TYWEHDTSQGQVRMRLFGQRCQKC [W6D]", 3.38],
  ["TYWEHWTMQGQVRMRLFGQRCQKC [S8M]", 3.02]
]}
